From: patent US6455528B1

melting point overview
property measured: melting point

> print(dat)
                                    molecule           result
 1        O=CNCc1ccc(CN2CCN(c3ncccn3)CC2)cc1      97 to 98 °C
 2  CCC(CC)(NC(C)=O)c1ccc(CN2CCN(c3ccccc3)CC2)cc1    139 to 140 °C
 3    CC(=O)NCc1ccc(CN2CCN(c3ccccc3)CC2)cc1N    148 to 149 °C
 4  CC(=O)NCc1ccc(CN2CCN(c3cccc(C)c3)CC2)cc1      80 to 81 °C
 5  CC(=O)NC1(c2ccc(CN3CCN(c4ncccn4)CC3)cc2)CC1    145 to 146 °C
 6  CC(=O)NCc1ccc(CN2CCN(c3ccnc(Cl)n3)CC2)cc1    132 to 133 °C
 7  CC(=O)NC1(c2ccc(CN3CCN(c4ccc(F)cc4F)CC3)cc2)CC1    124 to 125 °C
 8  CC(=O)NC(C)c1ccc(CN2CCN(c3ncccn3)CC2)cc1 (stereo not shown)    124 to 126 °C
 9  CC(=O)NCc1ccc(CN2CCN(c3nc(Cl)cc(Cl)n3)CC2)cc1    139 to 140 °C
10  CCC(NC(C)=O)c1ccc(CN2CCN(c3ccccc3)CC2)cc1 (stereo not shown)  109 to 110.5 °C
